This collection of values is drawn from patent US20260176289A1.

Molecular target: KRAS-WT (Homo sapiens, UniProt P01116)
Sequence (P01116 with tags, fused parts or gaps isoform P01116-2): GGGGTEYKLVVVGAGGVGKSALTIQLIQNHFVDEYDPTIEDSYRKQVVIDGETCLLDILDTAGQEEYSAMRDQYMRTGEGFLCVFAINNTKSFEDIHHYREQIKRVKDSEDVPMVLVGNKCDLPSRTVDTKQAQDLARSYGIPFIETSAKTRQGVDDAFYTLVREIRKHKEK
Test: SOS-catalyzed nucleotide exchange assay (Procedure A, TR-FRET), KRAS-WT
Format: biochemical
Settings: nucleotide exchange, read-out: KRAS WT GNE IC50
pIC50: −log10 of the molar value.
// reported pIC50 for each item listed

Compound structure string: Cc1cc2[nH]ncc2c(-c2nccc3c2sc2nc(OC[C@@]45CCCN4C[C@H](F)C5)nc(N4CCOC[C@@](C)(O)C4)c23)c1-c1ccc(F)o1
pIC50: 7.27

Compound structure string: COCc1cc2[nH]ncc2c(-c2nccc3c2sc2nc(OC[C@@]45CCCN4C[C@H](F)C5)nc(N4CCOC[C@@](C)(O)C4)c23)c1C1CC1
pIC50: 6.49

Compound structure string: C=C1CN2CCC[C@@]2(COc2nc(N3CCOC[C@@](C)(O)C3)c3c(n2)sc2c(-c4c(C5CC5)c(Cl)cc5[nH]ncc45)nccc23)C1
pIC50: 8.27

Compound structure string: C[C@@]1(O)COCCN(c2nc(OC[C@@]34CCCN3C[C@H](F)C4)nc3sc4c(-c5c(-c6ccco6)c(C(F)(F)F)cc6[nH]ncc56)nccc4c23)C1
pIC50: 6.71

Compound structure string: C[C@@]1(O)COCCN(c2nc(OC[C@@]34CCCN3C[C@]3(CC3(F)F)C4)nc3sc4c(-c5c(C6CC6)c(Cl)cc6[nH]ncc56)nccc4c23)C1
pIC50: 7.75

Compound structure string: Cc1cccc(-c2nccc3c2sc2nc(OC[C@@]45CCCN4C[C@H](F)C5)nc(N4CCOC[C@@](C)(O)C4)c23)c1C
pIC50: 5.97
